Listing of entries alongside the reported EC50.
- Tested on: CEM cells HIV-1 protection, formazan growth assay
- procedure.summary: NCI AIDS Antiviral Assay

>>> experimental_result("ClC1=NN=C(c2c[nH]c3ccccc23)CC1NCc1ccccc1 (stereo not given)")
"> 200 µM"
>>> experimental_result("O=C(O)c1c(CC(Cc2ccc3c(c2)CCCC3)C(=O)O)ccc2c1CCCC2 (stereo not given)")
"> 200 µM"
>>> experimental_result("O=c1c(N(CCO)CCO)cn(C(c2ccccc2)(c2ccccc2)c2ccccc2)c(=O)n1C(c1ccccc1)(c1ccccc1)c1ccccc1")
"> 200 µM"
>>> experimental_result("CC1(C)OC2OC(C(O)COC(=O)c3ccccc3)C(Cl)C2O1 (stereo not given)")
"> 219 µM"
>>> experimental_result("COc1cc(/C=C2\\C(=O)N(C(=O)Cc3ccccc3)N=C2C)ccc1O")
"> 53.7 µM"

Prompt line: Look up EC50 of COc1cc(N)ccc1Nc1c2ccccc2nc2ccccc12 and report it.
Response line: > 200 µM

Prompt line: Look up EC50 of CC[N+]1(C)CCC(O)(/C=C/c2ccc(Cl)cc2)C(C(=O)/C=C/c2ccc(Cl)cc2)C1 (stereo not given) and report it.
Response line: > 20 µM

----------
Listing of entries alongside the reported IC50.
- System: CEM cells HIV-1 protection, formazan growth assay
- procedure.summary: NCI AIDS Antiviral Assay
- condition.info: measured here: growth of uninfected CEM cells
Field: numeric (µM). Do not append units.

# annotated cases, reported IC50 shown
>>> experimental_result("COc1ccc(N2C(=O)C3c4[nH]c5ccc(C)cc5c4C4CCC(C(C)(C)C)CC4C3C2=O)cc1 (stereo not given)")
47.9
>>> experimental_result("CC1=NNC(=O)C1C1CC(c2c[nH]c3ccccc23)=Nn2c(-c3ccccc3)nnc21 (stereo not given)")
32.4
>>> experimental_result("CN(CCO)CC(=O)CC(O)(C(F)(F)F)C(F)(F)F")
39.8
>>> experimental_result("O=C(c1ccccc1)N1C(=S)N(c2ccccn2)C(=Nc2ccccc2)C1=Nc1ccccc1")
8.71
>>> experimental_result("Cc1cccc(C)c1NC(=O)C(=O)C(C(=O)c1ccccc1-c1ccccc1)C1OC(=O)c2ccccc21 (stereo not given)")
24.5

Prompt line: Return reported IC50 for target or system CEM cells HIV-1 protection, formazan growth assay, item CSC1=NS(=O)(=O)c2cc(C(=O)NN(C)C(=O)c3cc4c(cc3Cl)SC(SC)=NS4(=O)=O)c(Cl)cc2S1 .
Response line: 91.2

Prompt line: Return reported IC50 for target or system CEM cells HIV-1 protection, formazan growth assay, item NC(=O)C1=Cc2cccn2-c2ccccc2S1 .
Response line: 56.2

Prompt line: Return reported IC50 for target or system CEM cells HIV-1 protection, formazan growth assay, item CN1C2CCC1CC(OC(=O)C1CCC(C(=O)OC3CC4CCC(C3)N4C)(c3ccccc3)c3ccccc31)C2 (stereo not given) .
Response line: 6.46

Prompt line: Return reported IC50 for target or system CEM cells HIV-1 protection, formazan growth assay, item O=C(O)CCCc1ccc2c(c1)CC1(C2)Cc2ccc(CCCC(=O)O)cc2C1 .
Response line: 141

Prompt line: Return reported IC50 for target or system CEM cells HIV-1 protection, formazan growth assay, item O=C(CN(c1ccc(S(=O)(=O)O)cc1)c1ccc(S(=O)(=O)O)cc1)Nn1cnc2ccc(S(=O)(=O)N(c3ccc(S(=O)(=O)O)cc3)c3ccc(S(=O)(=O)O)cc3)cc2c1=O .
Response line: 95.5

Prompt line: Return reported IC50 for target or system CEM cells HIV-1 protection, formazan growth assay, item COC(=O)c1cc(C(=CCCCC=O)c2cc(Cl)c(OC)c(C(=O)OC)c2)cc(Cl)c1OC .
Response line: 11.5

Data origin, for the record: PubChem BioAssay AID179
